# System: HT29 colon
# testDetails: NCI-60 one-dose screen, 48 h (100 = growth as untreated, 0 = no growth, -100 = all killed)
# measurementParameters: 10 µM unless noted
About 83,000 compounds went through this panel and 20% of them were active in at least one assay; those are over-represented in the sample as a whole.
metric: growth (%)
Answers are plain numbers, in %.

Before answering, review these 4 worked examples.
COc1cc2c(c(OC)c1OC)C(=O)CC(c1cccc(NC(=O)c3cc(NC(=O)[C@@H](N)CO)ccc3C)c1)O2 (stereo partly drawn) ... 102
CCCS(=O)(=O)N1CCCC(C(=O)Nc2nc3ccc(NC(=O)c4ccc(F)c(OC)c4F)cc3s2)C1 (stereo not drawn) ... 54.2
CC(=O)Nc1cccc(Nc2nc(N[C@H]3CCCc4ccccc43)c3ccccc3n2)c1 ... 104
Clc1cccc(N/N=C/c2c[nH]c3ccc(Br)cc23)n1 ... 23.6

Give one value of growth per listed compound.
1. CC1(C)CC[C@]2(C(=O)O)CC[C@]3(C)C(=CCC4[C@@]5(C)C[C@@H](O)[C@@H]6OC(c7cccc(Br)c7)OC[C@@]6(C)C5CC[C@]43C)C2C1 (stereo partly drawn)
2. O=C(O)c1ccc(-c2ccc(/C=N/NC(=O)c3[nH]c4ccc(Br)cc4c3-c3ccccc3)o2)cc1
3. COc1ccc(/C=C/c2nc3ccccc3nc2Nc2cccc(C)c2)cc1
4. COc1cc2oc(-c3cccc(NC(=O)[C@H](Cc4ccccc4)NC(=O)OC(C)(C)C)c3)cc(=O)c2c(OC)c1OC

Ans:
1. 21.5
2. 34.5
3. 101
4. 22.8

###

# Test system: NCI-H226 lung
# testDetails: NCI-60 one-dose screen, 48 h
# measurementParameters: 10 µM unless noted
About 83,000 compounds went through this panel and 20% of them were active in at least one assay; those are over-represented in the sample as a whole. The source made the active and inactive calls. The calls were made as follows: active = growth percent below 10; inactive = the rest.
The reply should name one outcome from active, inactive

Below, 10 compounds whose answers are already recorded.
O=C(/C=C/Nc1ccc(Cl)cc1)c1ccc2c(c1)Nc1ccccc1S2 ... active
COc1cc(CNC(=O)/C=C/c2ccc3c(c2)OCO3)ccc1OCc1cn(-c2cccc(C(F)(F)F)c2)nn1 ... active
CCCSc1nc(NCCc2c[nH]c3ccccc23)c(C#N)c(-c2ccc(F)cc2)n1 ... inactive
C/C(=N\N=C1/C(=O)Nc2ccc(Cl)cc21)c1ccc2c(c1)Nc1ccccc1S2 ... inactive
CC(=O)OC[C@@]1(C)C2CC[C@]3(C)C(CC=C4C5CC(C)(C)CC[C@]5(C(=O)Nc5ccc(F)cc5)CC[C@]43C)[C@@]2(C)C[C@@H](OC(C)=O)[C@@H]1OC(C)=O (some centres undefined) ... inactive
O=C(NNc1nc2cc(F)ccc2n2c(C(=O)N3CCN(C4CC4)CC3)ccc12)c1ncccn1 ... inactive
N#Cc1c(-c2cccc(Cl)c2Cl)cc(-c2c[nH]c3ccccc23)[nH]c1=O ... active
CC(=O)Nc1ccc(-c2cn(-c3cccc(C(=O)Nc4ccc(N5CCN(C)CC5)cc4)c3)nn2)cn1 ... inactive
COc1ccc(-c2ccnc(SCc3cc4ccccc4[nH]c3=O)n2)cc1OC ... active
O=C1N/C(=N\c2nccs2)S/C1=C\C=C/c1ccccc1 ... inactive

Q: I'd appreciate the recorded outcome for `O=C(/C=C/c1cccc(OCc2ccc(F)cc2)c1)c1nc2ccccc2[nH]1` from this test.
Ans: inactive

Q: Each compound tested received a call. Report the one for `CC(=O)c1c(N)c(C#N)cn1-c1ccc(Cl)cc1Cl` .
Ans: inactive

Q: Hi team, can someone confirm the assay call for CC1(c2cc3cc(Cl)ccc3oc2=O)NC(=O)c2c(/C=C/C(=O)OC3CC4CCC3(C)C4(C)C)cccc2N1 (centres undefined) ?
Ans: inactive

Q: Assay outcome for `Cn1cc(-c2cc(N)n3nc(-c4cn(C)c5ccccc45)cc3n2)c2cc(Br)ccc21` : what was it?
Ans: active

Q: Outcome? `Cc1ccc(-c2nc(C#N)c(S(=O)(=O)N3CCN(S(=O)(=O)c4ccccc4)CC3)o2)cc1`
Ans: inactive

Q: Would you mind telling me which call this test gave CCOC(=O)C1=C(N)N(c2ccccc2)C2=C(C(=O)CC(C)(C)C2)C1c1ccc(N2CCOCC2)cc1 (centres undefined) ?
Ans: inactive

Q: Identify the outcome logged in this assay for the compound shown: `CN(C)c1nc(NCCNS(=O)(=O)c2ccc(C(=O)/C=C/c3ccc(Cl)cc3)cc2)nc(Nc2ccc(F)cc2)n1`
Ans: active

Q: How was `COc1ccc(-c2nc(SC(C)C)nc(NCCc3c[nH]c4ccccc34)c2C#N)cc1` classified in this test?
Ans: inactive

Q: Called result for `COc1cccc(/C=C/C(=O)c2ccc(OC)c(S(N)(=O)=O)c2)c1`
Ans: inactive
